Test system hCA XII (Homo sapiens), Ki listed for each of the compounds.
parameter: Ki (µM)

Below: 4 compounds and their reported Ki.
NS(=O)(=O)c1ccc(Nc2nc3nccc(-c4ccc([N+](=O)[O-])cc4)n3n2)cc1; 0.0421
NS(=O)(=O)c1ccc(Nc2nc3nccc(-c4ccccc4)n3n2)cc1; 0.0717
NS(=O)(=O)c1ccc(Nc2nc3nccc(-c4ccc(F)cc4)n3n2)cc1; 0.0624
NS(=O)(=O)c1ccc(Nc2nc3nccc(-c4c(F)cccc4F)n3n2)cc1; 0.0225

I = NS(=O)(=O)c1ccc(Nc2nc3nccc(-c4ccncc4)n3n2)cc1
II = COc1ccc(-c2ccnc3nc(Nc4ccc(S(N)(=O)=O)cc4)nn23)cc1
Rank I against II by their Ki values and give the higher one. Label of pick, please. II
